Measured pIC50, listed per entry for reference.
biological target: UniProt:P51449; experiment: Gal4 ligand binding assay (RORγt Gal fusion reporter assay); conditions: inverse agonists, luciferase reporter, 24h
pIC50: −log10 of the molar value.
observable: pIC50

CCc1cc(CN2C3CCC2CN(S(C)(=O)=O)C3)ccc1-c1ccc(C(O)(C(F)(F)F)C(F)(F)F)cc1 ... 6.60 to 7.30
Cc1cc(CN2CC3CCC(C2)N3Cc2ccc(F)cc2)ccc1-c1ccc(C(O)(C(F)(F)F)C(F)(F)F)cc1 ... < 6.60
CS(=O)(=O)N1C2CCC1CN(Cc1ccc(-c3ccc(C(O)(C(F)(F)F)C(F)(F)F)cc3)c(Cl)c1)C2 ... 6.60 to 7.30
Cc1cc(CN2CC3CCC(C2)N3c2noc(C(C)(C)C)n2)ccc1-c1ccc(C(O)(C(F)(F)F)C(F)(F)F)cc1 ... < 6.60
CCc1nc(CN2CC3CCC(C2)N3S(C)(=O)=O)ccc1-c1ccc(C(O)(C(F)(F)F)C(F)(F)F)cc1C ... < 6.60
COCC(=O)N1C2CCC1CN(Cc1ccc(-c3ccc(C(O)(C(F)(F)F)C(F)(F)F)cc3)c(C)c1)C2 ... 6.60 to 7.30
CCc1cc(CN2CC3CCC(C2)N3C(C)=O)ccc1-c1ccc(C(O)(C(F)(F)F)C(F)(F)F)cc1 ... > 7.30

====

Biological target: RORγt (Homo sapiens)
Construct: purchased reporter-cell kit
Sequence (P51449 269-508 limits assumed): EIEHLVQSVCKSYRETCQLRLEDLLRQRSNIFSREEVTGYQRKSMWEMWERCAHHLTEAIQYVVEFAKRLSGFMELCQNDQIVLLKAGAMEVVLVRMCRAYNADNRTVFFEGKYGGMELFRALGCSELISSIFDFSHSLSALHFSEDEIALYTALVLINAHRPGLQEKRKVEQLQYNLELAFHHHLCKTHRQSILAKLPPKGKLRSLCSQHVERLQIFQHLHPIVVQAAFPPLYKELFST
Assay: Gal4 ligand binding assay (RORγt Gal fusion reporter assay)
Assay type: cell-based
Conditions: inverse agonists, luciferase reporter, 24h
Procedure: Compounds of the present invention were tested in a human RORγ ligand binding assay using a commercially available cell based ligand binding reporter assay in 96-well format (Cat #IB04001, INDIGO Biosciences, State College, Pa.). […] Both agonist and inverse agonist activity can be detected. […] After 5 minute incubation, relative light units (RLUs) were quantified using a plate reading luminometer. […]
pIC50: −log10 of the molar value.
observable: pIC50

OC(c1ccc(-c2ccc(CN3C4CCC3CN(Cc3ccncc3)C4)cc2)cc1)(C(F)(F)F)C(F)(F)F [Example 2] ... < 6.60
CCc1cc(CN2CC3CCC(C2)N3S(C)(=O)=O)ccc1-c1ccc(C(O)(C(F)(F)F)C(F)(F)F)cc1 [Example 52] ... > 7.30
Cc1cc(CN2CC3CC2CN3S(C)(=O)=O)ccc1-c1ccc(C(O)(C(F)(F)F)C(F)(F)F)cc1 (stereo not shown) [Example 49] ... < 6.60
OC(c1ccc(-c2ccc(CN3CC4CCC(C3)N4Cc3ccncc3)cc2)cc1)(C(F)(F)F)C(F)(F)F [Example 1] ... 6.60 to 7.30

====

Target: RORγt (Homo sapiens)
Sequence (P51449 269-508 limits assumed): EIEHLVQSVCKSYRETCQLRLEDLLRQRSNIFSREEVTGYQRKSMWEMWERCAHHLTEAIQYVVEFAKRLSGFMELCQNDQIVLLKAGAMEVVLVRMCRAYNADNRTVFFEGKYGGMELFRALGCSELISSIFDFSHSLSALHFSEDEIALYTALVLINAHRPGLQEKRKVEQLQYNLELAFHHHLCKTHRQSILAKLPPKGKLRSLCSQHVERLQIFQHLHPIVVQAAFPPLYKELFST
Test: Gal4 ligand binding assay (RORγt Gal fusion reporter assay)
Conditions: inverse agonists, luciferase reporter, 24h
Procedure: Compounds of the present invention were tested in a human RORγ ligand binding assay using a commercially available cell based ligand binding reporter assay in 96-well format (Cat #IB04001, INDIGO Biosciences, State College, Pa.). […] Both agonist and inverse agonist activity can be detected. […] After 5 minute incubation, relative light units (RLUs) were quantified using a plate reading luminometer. […]
observable: IC50

CCS(=O)(=O)N1C2CCC1CN(Cc1ccc(-c3ccc(C(O)(C(F)(F)F)C(F)(F)F)cc3)c(C)c1)C2 ... > 250 nM
CCc1cc(CN2CC3CCC(C2)N3S(C)(=O)=O)ccc1-c1ccc(C(O)(C(F)(F)F)C(F)(F)F)cc1F ... < 50 nM
Cc1cc(CN2CC3CCC(C2)N3S(=O)(=O)c2ccc(F)cc2)ccc1-c1ccc(C(O)(C(F)(F)F)C(F)(F)F)cc1 ... > 250 nM

====

Reported values of pIC50 for individual entries
Biological target: RORγt (Homo sapiens)
Assay: Gal4 ligand binding assay (RORγt Gal fusion reporter assay)
Details: inverse agonists, luciferase reporter, 24h
Method: Compounds of the present invention were tested in a human RORγ ligand binding assay using a commercially available cell based ligand binding reporter assay in 96-well format (Cat #IB04001, INDIGO Biosciences, State College, Pa.). […] Both agonist and inverse agonist activity can be detected. […] After 5 minute incubation, relative light units (RLUs) were quantified using a plate reading luminometer. […]
pIC50: −log10 of the molar value.
observable: pIC50

CCc1cc(CN2CC3COCC(C2)N3S(C)(=O)=O)ccc1-c1ccc(C(O)(C(F)(F)F)C(F)(F)F)cc1 ... 6.60 to 7.30
CCc1cc(CN2CC3CCC(C2)N3S(C)(=O)=O)cnc1-c1ccc(C(O)(C(F)(F)F)C(F)(F)F)cc1C ... < 6.60
CS(=O)(=O)N1C2CCC1CN(c1cccc(-c3ccc(C(O)(C(F)(F)F)C(F)(F)F)cc3)c1)C2 ... < 6.60
Cc1cc(CN2C3CCC2CN(Cc2ccc(-c4ccc(C(O)(C(F)(F)F)C(F)(F)F)cc4)c(Cl)c2)C3)ccn1 ... 6.60 to 7.30
CS(=O)(=O)N1C2CCC1CN(Cc1ccc(-c3ccc(C(O)(C(F)(F)F)C(F)(F)F)cc3)c(F)c1)C2 ... < 6.60
CCc1cc(CN2CC3CCC(C2)N3S(C)(=O)=O)ccc1-c1ccc(C(O)(C(F)(F)F)C(F)(F)F)cc1Cl ... > 7.30
CCc1cc(CN2CC3CCC(C2)N3S(C)(=O)=O)cc(F)c1-c1ccc(C(O)(C(F)(F)F)C(F)(F)F)cc1F ... > 7.30
Cc1cc(CN2CC3CCC(C2)N3Cc2ccncc2)ccc1-c1ccc(C(O)(C(F)(F)F)C(F)(F)F)cc1 ... > 7.30
Cc1cc(CN2CC3CCC(C2)N3C(=O)c2ccncc2)ccc1-c1ccc(C(O)(C(F)(F)F)C(F)(F)F)cc1 ... 6.60 to 7.30
CCc1cc(CN2CC3CCC(C2)N3S(C)(=O)=O)ncc1-c1ccc(C(O)(C(F)(F)F)C(F)(F)F)cc1Cl ... 6.60 to 7.30
Cc1cc(C(O)(C(F)(F)F)C(F)(F)F)ccc1-c1cc(F)c(CN2CC3CCC(C2)N3S(C)(=O)=O)cc1C(C)C ... 6.60 to 7.30
Cc1cc(CN2CC3CCC(C2)N3C(=O)C2CCOCC2)ccc1-c1ccc(C(O)(C(F)(F)F)C(F)(F)F)cc1 ... 6.60 to 7.30
CCc1cc(CN2CC3CCC(C2)N3S(C)(=O)=O)ccc1-c1ccc(C(O)(C(F)(F)F)C(F)(F)F)cc1C ... > 7.30
